In this section we review reported inhibition at 0.01 µM values for a set of compounds.
Biological target: human DPP1 enzyme (Homo sapiens, UniProt P53634)
Assay: Human DPP1 Enzyme Single-Point Percent Inhibition Testing (HL-60 lysate)
Type: biochemical
Set-up: A crude lysate of HL-60 cells (ATCC; Manassas, VA) was used as a source of human DPP1 enzyme; host or cells: HL-60 cells (crude lysate)
Conditions: final compound concentration of 10 nM, 400 μM H-Gly-Arg-AMC, n = 1
reported-endpoint: inhibition at 0.01 µM

{"columns": ["compound", "reported-result"],
 "data": [
  ["C[C@@H]1NC[C@@H](C(=O)NC(C#N)Cc2cc3c(cc2F)-c2ccc4oc(=O)n(C)c4c2CO3)OC[C@@H]1O (stereo partly shown)", "40 to 66.7%"],
  ["Cc1cn2cc(-c3ccc(C[C@@H](C#N)NC(=O)[C@@H]4CNCCCO4)cc3)cc2c(C)n1", "≤ 40%"],
  ["N#C[C@H](Cc1ccc(-c2ccc(S(=O)(=O)N3CCC3)cc2)cc1F)NC(=O)[C@@H]1CNCCCO1", "≤ 40%"],
  ["CO[C@@H]1CCNC[C@@H](C(=O)N[C@H](C#N)Cc2ccc(-c3cc4c(C)nc(C)cn4c3)cc2F)OC1", "≥ 66.7%"],
  ["CO[C@H]1CCO[C@H](C(=O)N[C@H](C#N)Cc2ccc(-c3ccc4c(c3)C3(CCCN(C)C3)C(=O)N4C)cc2)CNC1 (stereo partly shown)", "40 to 66.7%"],
  ["N#C[C@H](Cc1ccc(-c2cnc3c(n2)CCCC3)cc1)NC(=O)[C@@H]1CNCCCO1", "≤ 40%"],
  ["N#C[C@H](Cc1ccc(-c2ccc3c(n2)CCCN3)cc1)NC(=O)[C@@H]1CNCCCO1", "≤ 40%"]
]}

* * *

Target: DPP1 in HL-60 cells (Homo sapiens, UniProt P53634)
Sequence (P53634 25-463): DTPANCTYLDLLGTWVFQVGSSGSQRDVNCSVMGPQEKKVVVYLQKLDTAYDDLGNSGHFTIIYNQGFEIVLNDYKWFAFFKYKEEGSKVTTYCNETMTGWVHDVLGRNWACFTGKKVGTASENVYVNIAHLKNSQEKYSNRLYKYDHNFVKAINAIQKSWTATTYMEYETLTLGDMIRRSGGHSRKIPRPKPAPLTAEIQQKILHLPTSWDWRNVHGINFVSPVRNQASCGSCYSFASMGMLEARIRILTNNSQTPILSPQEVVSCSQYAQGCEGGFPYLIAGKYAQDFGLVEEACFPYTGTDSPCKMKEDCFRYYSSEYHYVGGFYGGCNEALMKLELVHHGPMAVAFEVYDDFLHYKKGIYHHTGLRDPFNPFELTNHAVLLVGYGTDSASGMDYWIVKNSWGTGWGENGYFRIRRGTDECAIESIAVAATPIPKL
Assay: DPP1 Cell IC50 assay
Format: cell-based
Design: host or cells: HL-60 cells
Details: 60 min pre-incubation, H-Gly-Phe-AFC substrate, average of n runs, read-out: Avg. IC50 (DPP1 Cell IC50 value ranges)
Method: Example 99. DPP1 Cell IC50 assay HL-60 cells (ATCC; Manassas, VA) were maintained in RPMI-1640 supplemented with 20% heat-inactivated FBS and 1× Antibiotic Antimycotic (Cytiva; Marlborough, MA). Media was changed every three to four days and cells were not allowed to exceed 1×10^6 cells per mL. Prior to assay, cells were collected by centrifugation at 500 rcf for 3 minutes, resuspended in PBS and counted. […]
pIC50: −log10 of the molar value.
# pIC50 per entry

{"columns": ["molecule", "test-target", "pIC50"],
 "data": [
  ["Cn1nnc2cc3c(cc21)-c1cc(F)c(C[C@@H](C#N)NC(=O)[C@@H]2CNCCCO2)cc1OC3", "DPP1 in HL-60 cells (Homo sapiens, UniProt P53634)", "8.60 to 9.00"],
  ["COC1CNC[C@@H](C(=O)N[C@H](C#N)Cc2ccc(-c3ccc4nnn(C)c4c3)cc2)OC1 (single isomer, unassigned)", "DPP1 in HL-60 cells (Homo sapiens, UniProt P53634)", "< 8.60"],
  ["CN1CCN(Cc2ccc(-c3ccc(C[C@@H](C#N)NC(=O)[C@@H]4CNCCCO4)cc3)cc2)CC1", "DPP1 in HL-60 cells (Homo sapiens, UniProt P53634)", "< 8.60"],
  ["CO[C@@H]1CCNC[C@@H](C(=O)N[C@H](C#N)Cc2ccc(-c3ccc4c(c3)CCC(=O)N4C)cc2F)OC1", "DPP1 in HL-60 cells (Homo sapiens, UniProt P53634)", "8.60 to 9.00"],
  ["CN1CCC(n2ncc3ccc(-c4ccc(C[C@@H](C#N)NC(=O)[C@@H]5CNCCCO5)c(F)c4)cc32)CC1", "DPP1 in HL-60 cells (Homo sapiens, UniProt P53634)", "< 8.60"],
  ["CO[C@@H]1CCNC[C@@H](C(=O)NC(C#N)Cc2cnc(-c3ccc4c(n3)CCCN4)s2)OC1 (stereo partly shown)", "DPP1 in HL-60 cells (Homo sapiens, UniProt P53634)", "< 8.60"],
  ["C[C@@H]1NC[C@@H](C(=O)N[C@H](C#N)Cc2ccc(-c3ccc4c(c3)CCC(=O)N4C)cc2F)OC[C@@H]1O", "DPP1 in HL-60 cells (Homo sapiens, UniProt P53634)", "8.60 to 9.00"]
]}
